Reference for the values: paper PMC6271559

- assay details: MTT cytotoxicity assay, HUVEC
- Type: cell-based
- assay conditions: human, HUVEC (human umbilical vein endothelial cells), mean of three independent assays
Decide using IC50 at 48 h alone. Strictly below 40 µM: TRUE. Equal to or above 40 µM: FALSE.

INSERT INTO assay_data (compound, class) VALUES
  ('CN(C)CCCNc1nc(-c2ccccc2NC(=O)CCN2CCOCC2)nc2ccccc12 [Compound 11e]', 'FALSE'),
  ('CN(C)CCCNc1nc(-c2ccccc2NC(=O)CCN2CCCCC2)nc2ccccc12 [Compound 11a]', 'FALSE'),
  ('CCN(CC)CC(=O)Nc1ccccc1-c1nc(NCCCN(C)C)c2ccccc2n1 [Compound 10c]', 'FALSE'),
  ('CN(C)CCCNc1nc(-c2ccccc2NC(=O)CN2CCOCC2)nc2ccccc12 [Compound 10e]', 'FALSE'),
  ('CN(C)CCCNc1nc(-c2ccccc2NC(=O)CCN2CCN(C)CC2)nc2ccccc12 [Compound 11d]', 'FALSE'),
  ('CN(C)CCCNc1nc(-c2ccccc2NC(=O)CN2CCN(C)CC2)nc2ccccc12 [Compound 10d]', 'TRUE');

###

- Tested on: PC-3 (human prostatic carcinoma) cells
- assay details: MTT cytotoxicity assay, PC-3
- Assay type: cell-based
- assay conditions: Prostatic carcinoma cell, 48 h, mean of three independent assays
- Excerpt: In the early 80s, scientists proposed anti-angiogenesis as a potential target in cancer therapy. Much research in the past 30 years has targeted tumor angiogenesis as a means of inhibiting the process of tumor-caused blood vessel formation. […] Meanwhile, an appropriate concentration range of these compounds could be determined to further study their inhibitive effects against the proliferation, migration, and differentiation of HUVECs. […]
pIC50: −log10 of the molar value.
readout kind: pIC50

INSERT INTO measurements (compound, readout_kind, reported) VALUES
  ('CN(C)CCCNc1nc(-c2ccccc2NC(=O)CCN2CCN(C)CC2)nc2ccccc12 [Compound 11d]', 'pIC50', 5.01),
  ('CN(C)CCCNc1nc(-c2ccccc2NC(=O)CN2CCCC2)nc2ccccc12 [Compound 10b]', 'pIC50', 4.78),
  ('CN(C)CCCNc1nc(-c2ccccc2NC(=O)CCCN2CCCC2)nc2ccccc12 [Compound 12b]', 'pIC50', 4.72),
  ('CN(C)CCCNc1nc(-c2ccccc2NC(=O)CN2CCOCC2)nc2ccccc12 [Compound 10e]', 'pIC50', 4.69),
  ('CN(C)CCCNc1nc(-c2ccccc2NC(=O)CCCN2CCOCC2)nc2ccccc12 [Compound 12e]', 'pIC50', 4.66),
  ('CN(C)CCCNc1nc(-c2ccccc2NC(=O)CCCN2CCCCC2)nc2ccccc12 [Compound 12a]', 'pIC50', 4.75),
  ('CN(C)CCCNc1nc(-c2ccccc2NC(=O)CN2CCN(C)CC2)nc2ccccc12 [Compound 10d]', 'pIC50', 4.95),
  ('CN(C)CCCNc1nc(-c2ccccc2NC(=O)CCN2CCCC2)nc2ccccc12 [Compound 11b]', 'pIC50', 4.76),
  ('CN(C)CCCNc1nc(-c2ccccc2NC(=O)CCN2CCCCC2)nc2ccccc12 [Compound 11a]', 'pIC50', 4.74),
  ('CCN(CC)CCC(=O)Nc1ccccc1-c1nc(NCCCN(C)C)c2ccccc2n1 [Compound 11c]', 'pIC50', 4.73),
  ('CCN(CC)CC(=O)Nc1ccccc1-c1nc(NCCCN(C)C)c2ccccc2n1 [Compound 10c]', 'pIC50', 4.75),
  ('CN(C)CCCNc1nc(-c2ccccc2NC(=O)CCN2CCOCC2)nc2ccccc12 [Compound 11e]', 'pIC50', 4.71),
  ('CN(C)CCCNc1nc(-c2ccccc2NC(=O)CN2CCCCC2)nc2ccccc12 [Compound 10a]', 'pIC50', 4.77),
  ('CN(C)CCCNc1nc(-c2ccccc2NC(=O)CCCN2CCN(C)CC2)nc2ccccc12 [Compound 12d]', 'pIC50', 4.96);
